Biological target: CD45 (Homo sapiens, UniProt P08575)
Construct: incubating the cytosolic portion of CD45 with the compounds and p-nitrophenyl phosphate (pNPP); purchased BIOMOL (Plymouth Meeting, Pa.)
Sequence (P08575 599-1306 limits assumed): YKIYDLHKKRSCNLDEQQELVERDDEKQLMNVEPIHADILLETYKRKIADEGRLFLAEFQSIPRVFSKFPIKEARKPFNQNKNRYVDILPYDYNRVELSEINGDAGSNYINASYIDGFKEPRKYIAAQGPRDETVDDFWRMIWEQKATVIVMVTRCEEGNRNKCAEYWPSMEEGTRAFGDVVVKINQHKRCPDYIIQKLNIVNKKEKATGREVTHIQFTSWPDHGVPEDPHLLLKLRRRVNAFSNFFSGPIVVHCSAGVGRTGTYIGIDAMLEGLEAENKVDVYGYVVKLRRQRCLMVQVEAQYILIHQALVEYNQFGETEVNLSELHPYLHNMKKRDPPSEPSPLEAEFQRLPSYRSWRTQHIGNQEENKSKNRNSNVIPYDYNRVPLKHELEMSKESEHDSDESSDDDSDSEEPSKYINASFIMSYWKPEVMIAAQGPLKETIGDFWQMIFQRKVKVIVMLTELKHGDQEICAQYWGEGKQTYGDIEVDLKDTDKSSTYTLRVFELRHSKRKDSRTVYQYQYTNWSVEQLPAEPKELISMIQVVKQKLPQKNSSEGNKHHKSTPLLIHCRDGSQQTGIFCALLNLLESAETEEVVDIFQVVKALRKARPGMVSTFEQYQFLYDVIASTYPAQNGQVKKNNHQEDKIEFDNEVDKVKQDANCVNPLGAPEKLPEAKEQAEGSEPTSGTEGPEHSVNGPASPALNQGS
Assay: Phosphatase assay using pNPP as substrate
Type: biochemical
Details: pH 7; read-out: pNPP IC50
Where a SMILES comes first, the peptide text is derived from it. The star is where a group is joined. Phenanthrenequinone2carbonyl = O=C1C(=O)c2cc(C(=O)*)ccc2-c2ccccc21; 3Phenanthroyl(9,10-dioxo) = O=C1C(=O)c2ccc(C(=O)*)cc2-c2ccccc21
Property Measured: pIC50
FYI, pIC50 means -log10 of a concentration in mol per litre.

Solved entries:
- N=C(N)NCCC[C@H](NC(=O)c1ccc2c(c1)C(=O)C(=O)c1ccccc1-2)C(=O)N[C@@H](CCCNC(=N)N)C(=O)N1CCC[C@H]1C(=O)N[C@@H](CCC(=O)O)C(=O)NCC(=O)O [Example 48] (Phenanthrenequinone2carbonyl-RRPEG-OH): 6.22
- NC(=O)CC[C@H](NC(=O)CNC(=O)[C@H](CCC(=O)O)NC(=O)CNC(=O)c1ccc2c(c1)-c1ccccc1C(=O)C2=O)C(=O)N1CCC[C@H]1C(=O)O [Example 32] ({3Phenanthroyl(9,10-dioxo)}-GEGQP-OH): 6.15
- N=C(N)NCCC[C@H](NC(=O)[C@@H]1CCCN1C(=O)CNC(=O)[C@H](CCC(=O)O)NC(=O)c1ccc2c(c1)C(=O)C(=O)c1ccccc1-2)C(=O)NCC(=O)O [Example 50] (Phenanthrenequinone2carbonyl-EGPRG-OH): 6.15

Shifting focus to the compound that follows.
Requested read-out pIC50, target or system CD45 (Homo sapiens, UniProt P08575), entry NC(=O)CC[C@H](NC(=O)[C@H](CCC(=O)O)NC(=O)c1ccc2c(c1)-c1ccccc1C(=O)C2=O)C(=O)NCC(=O)N[C@@H](CCC(N)=O)C(=O)N1CCC[C@H]1C(=O)O [Example 31] ({3Phenanthroyl(9,10-dioxo)}-EQGQP-OH)
6.22
